- System: human tumor cell lines
- Assay Notes: In vitro anticancer activity, panel of seven human tumor cell lines (SRB assay)
- Assay type: cell-based
- Conditions: various human tumour cell lines
Attribute Measured: cytotoxic activity in words

>  <Compound>
COc1ccc(/C=C\c2cc(OC)c(OC)c(OC)c2)cc1OCCCCN1CCN(CCCCOc2cccc(-c3nc4ccccc4s3)c2)CC1 [Compound 15r]

>  <Experimental Result>
increase in activity

$$$$
>  <Compound>
COc1ccc(/C=C\c2cc(OC)c(OC)c(OC)c2)cc1OCCCCN1CCN(CCCCOc2cc(-c3nc4ccccc4s3)ccc2OC)CC1 [Compound 15m]

>  <Experimental Result>
increase in activity

$$$$
>  <Compound>
COc1cc(-c2nc3ccccc3s2)ccc1OCCCCN1CCN(CCCCOc2cc(/C=C\c3cc(OC)c(OC)c(OC)c3)ccc2OC)CC1 [Compound 15c]

>  <Experimental Result>
increase in activity

$$$$
>  <Compound>
COc1ccc(/C=C\c2cc(OC)c(OC)c(OC)c2)cc1OCCCCN1CCN(CCCCOc2ccc(-c3nc4ccccc4s3)cc2)CC1 [Compound 15h]

>  <Experimental Result>
increase in activity

$$$$

====

- Test system: human tumor cell lines
- Assay Notes: In vitro anticancer activity, panel of seven human tumor cell lines (SRB assay)
- Format: cell-based
- Conditions: Homo sapiens; range over the cell lines, 10 μM, exposure period of at least 48 hrs; read-out: percentage growth inhibition for invitro anticancer activity
Items are presented alongside their recorded inhibition at 10 µM.

Recorded inhibition at 10 µM, per entry:
>  <Compound>
COc1cc(-c2nc3ccccc3s2)ccc1OCCCCN1CCN(CCCCOc2cc(/C=C/C(=O)c3cc(OC)c(OC)c(OC)c3)ccc2OC)CC1 [Compound 16c]

>  <Study System>
human tumor cell lines

>  <inhibition at 10 µM>
1 to 100%

$$$$
>  <Compound>
COc1ccc(/C=C\c2cc(OC)c(OC)c(OC)c2)cc1OCCCCOc1ccc(-c2nc3ccccc3s2)cc1

>  <Study System>
human tumor cell lines

>  <inhibition at 10 µM>
1 to 100%

$$$$

## Task Any idea what inhibition at 10 µM was measured for COc1ccc(/C=C\c2cc(OC)c(OC)c(OC)c2)cc1OCCCCN1CCN(CCCCOc2cc(-c3nc4ccccc4s3)ccc2OC)CC1 [Compound 15m] ?
## Result 1 to 100%

====

- Tested on: PC-3
- Assay Notes: In vitro cytotoxicity, SRB assay, prostate cancer cell line PC-3
- Assay type: cell-based, human
- Conditions: Homo sapiens; PC-3 (prostate), 10 μM, 48 h exposure; read-out: % of growth inhibition
Mark false (0) for inhibition at 10 µM values under 60%, and true (1) for everything at or above.

>  <Compound>
COc1ccc(/C=C/C(=O)c2cc(OC)c(OC)c(OC)c2)cc1OCCCCN1CCN(CCCCOc2cc(-c3nc4ccccc4s3)ccc2OC)CC1 [Compound 16m]

>  <Label Value>
false (0)

$$$$
>  <Compound>
COc1cc(-c2nc3ccccc3s2)ccc1OCCCCN1CCN(CCCCOc2cc(/C=C/C(=O)c3cc(OC)c(OC)c(OC)c3)ccc2OC)CC1 [Compound 16c]

>  <Label Value>
false (0)

$$$$
>  <Compound>
COc1ccc(/C=C\c2cc(OC)c(OC)c(OC)c2)cc1OCCCCOc1ccc(-c2nc3ccccc3s2)cc1

>  <Label Value>
true (1)

$$$$

## Task Given COc1ccc(/C=C/C(=O)c2cc(OC)c(OC)c(OC)c2)cc1OCCCCOc1cc(-c2nc3ccccc3s2)ccc1OC [Compound 10m] , state whether its inhibition at 10 µM is at least 60%.
## Result false (0)

## Task API: above_or_equal(metric=inhibition at 10 µM, cutoff=60%) for item COc1ccc(/C=C\c2cc(OC)c(OC)c(OC)c2)cc1OCCCCOc1cc(-c2nc3ccccc3s2)ccc1OC
## Result true (1)

## Task # bool: inhibition at 10 µM of COc1cc(-c2nc3ccccc3s2)ccc1OCCCOc1cc(/C=C\c2cc(OC)c(OC)c(OC)c2)ccc1OC >= 60%
## Result true (1)

## Task Identify whether the reported inhibition at 10 µM of the following compound is 60% or greater: COc1ccc(/C=C\c2cc(OC)c(OC)c(OC)c2)cc1OCCCCN1CCN(CCCCOc2ccc(-c3nc4ccccc4s3)cc2)CC1 [Compound 15h]
## Result true (1)

## Task Is the recorded value of inhibition at 10 µM equal to or greater than 60% for this compound? COc1ccc(/C=C/C(=O)c2cc(OC)c(OC)c(OC)c2)cc1OCCCCN1CCN(CCCCOc2ccc(-c3nc4ccccc4s3)cc2)CC1 [Compound 16h]
## Result true (1)

## Task I'd appreciate it if you could say whether COc1ccc(/C=C/C(=O)c2cc(OC)c(OC)c(OC)c2)cc1OCCCCOc1cccc(-c2nc3ccccc3s2)c1 [Compound 10r] has inhibition at 10 µM at least equal to 60%.
## Result false (0)

## Task Given the entry COc1cc(-c2nc3ccccc3s2)ccc1OCCCOc1cc(/C=C/C(=O)c2cc(OC)c(OC)c(OC)c2)ccc1OC [Compound 10b] , answer whether its inhibition at 10 µM meets or surpasses 60%.
## Result false (0)

## Task For this compound, is measured inhibition at 10 µM 60% or higher? COc1cc(-c2nc3ccccc3s2)ccc1OCCCCN1CCN(CCCCOc2cc(/C=C\c3cc(OC)c(OC)c(OC)c3)ccc2OC)CC1 [Compound 15c]
## Result false (0)

## Task // inclusive: inhibition at 10 µM at least 60%? input: O=c1[nH]cc(F)c(=O)[nH]1 [5-Fluoro uracil, reference compound]
## Result false (0)

## Task Is inhibition at 10 µM at least 60%? Consider COc1ccc(/C=C/C(=O)c2cc(OC)c(OC)c(OC)c2)cc1OCCCCOc1ccc(-c2nc3ccccc3s2)cc1 [Compound 10h]
## Result false (0)

## Task Threshold query (inhibition at 10 µM >= 60%) on COc1ccc(/C=C\c2cc(OC)c(OC)c(OC)c2)cc1OCCCCN1CCN(CCCCOc2cccc(-c3nc4ccccc4s3)c2)CC1 [Compound 15r]
## Result true (1)

====

- Test system: Colo-205
- Assay Notes: In vitro cytotoxicity, SRB assay, colon cancer cell line Colo-205
- Assay type: cell-based, human
- Conditions: Homo sapiens; Colo-205 (colon), 10 μM, 48 h exposure; read-out: % of growth inhibition
Attribute Measured: inhibition at 10 µM (%)
Reply numerically in %, unit not repeated.

Examples with answers:
>  <Molecule>
COc1ccc(/C=C\c2cc(OC)c(OC)c(OC)c2)cc1OCCCCOc1cc(-c2nc3ccccc3s2)ccc1OC

>  <inhibition at 10 µM, %>
70

$$$$
>  <Molecule>
COc1cc(-c2nc3ccccc3s2)ccc1OCCCOc1cc(/C=C\c2cc(OC)c(OC)c(OC)c2)ccc1OC

>  <inhibition at 10 µM, %>
16

$$$$
>  <Molecule>
O=c1[nH]cc(F)c(=O)[nH]1 [5-Fluoro uracil, reference compound]

>  <inhibition at 10 µM, %>
55

$$$$

## Task What measured inhibition at 10 µM goes with COc1ccc(/C=C\c2cc(OC)c(OC)c(OC)c2)cc1OCCCCOc1ccc(-c2nc3ccccc3s2)cc1 ?
## Result 15

Hello, the source for this data is patent US8921552B2, in case you need it.
